These entries and their values trace back to patent US20130330346A1.

Catalogue of FLIPR IC50 (GRO-α induced calcium release) values
System under test: T1, Cynomolgus CXCR2 (cynomolgus, UniProt Q28519 3-353 (rhesus entry))
T1 chain: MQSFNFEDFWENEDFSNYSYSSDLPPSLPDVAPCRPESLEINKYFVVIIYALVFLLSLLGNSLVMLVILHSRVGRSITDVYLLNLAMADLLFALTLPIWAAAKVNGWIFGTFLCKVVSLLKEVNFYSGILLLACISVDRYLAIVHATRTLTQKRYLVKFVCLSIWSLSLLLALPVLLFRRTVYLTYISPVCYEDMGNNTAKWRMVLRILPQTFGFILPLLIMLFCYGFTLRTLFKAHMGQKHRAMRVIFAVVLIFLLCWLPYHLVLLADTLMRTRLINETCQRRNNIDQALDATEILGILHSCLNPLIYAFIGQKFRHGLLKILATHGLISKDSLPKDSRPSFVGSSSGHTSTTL
Assay name: cell-based or functional assay
Give the number; nM is assumed, so skip it.

>  <Binder>
CXCR20027 (bispecific antibody, Two different VHH joined by a GlySer linker; also called 163E3-35GS-163D2; not shown: C-terminal c-myc tag and His6 tag coded by pAX100) EVQLVESGGGLVQPGGSLRLSCVASGRIFSSNAMGWFRQAPGKEREFVAAITWRSGGSAYYADSAKGRFTISRDNAKNTVYLQMNSLKPEDTAVYYCAAGGSSWLSFPPDYWGQGTQVTVSSGGGGSGGGGSGGGGSGGGGSGGGGSGGGGSGGGGSEVQLVESGGGLVQAGGSLRLSCAASGRTFSDYAMGWFRQAPGKEREFVAAITWNGGRVFYTASVKGRFTISRDNAKNTMYLQMNSLKPEDTAVYYCAADKDRRTDYLGHPVAYWGQGTQVTVSS

>  <Unit label>
nM

>  <Recorded measurement>
12.7

$$$$

Short answer for CXCR20021 (bispecific antibody, Biparatopic: two VHH joined by a GlySer linker; also called 127D1-35GS-163E3; 127D1-163E3; not shown: C-terminal c-myc tag and His6 tag coded by pAX100) EVQLVESGGGLVQAGESLRLSCAASGSTFDFKVMGWYRQPPGKQREGVAAIRLSGNMHYAESVKGRFTISKANAKNTVYLQMNSLRPEDTAVYYCKVNIRGQDYWGQGTQVTVSSGGGGSGGGGSGGGGSGGGGSGGGGSGGGGSGGGGSEVQLVESGGGLVQPGGSLRLSCVASGRIFSSNAMGWFRQAPGKEREFVAAITWRSGGSAYYADSAKGRFTISRDNAKNTVYLQMNSLKPEDTAVYYCAAGGSSWLSFPPDYWGQGTQVTVSS : FLIPR IC50 (GRO-α induced calcium release) was 2.31
